TESTED TARGET: MALAT1
CONDITIONS: ASO, A431, 0.005 µM
After the bases stand the sugars from the 5' end (letter, count) and the backbone: PS all phosphorothioate, else s phosphorothioate and o phosphodiester by linkage. Methylation of C is not given here. k = constrained ethyl (cEt); d = 2'-deoxy (DNA)
PROPERTY: target mRNA inhibition (%)
State just the number; it will be interpreted in %.

Past entries and their recorded results:
CCAAGACAGCCACACG (sugars k3 d10 k3, PS) : 10
GATAGTTCAGGGCTTT (sugars k3 d10 k3, PS) : 10

**Query** Which target mRNA inhibition value belongs to TACACCCAGTGGCTCA (sugars k3 d10 k3, PS) ?
**Result** 30
